measurementType: melting point

Worked set:
>>> measvalue("O=[N+]([O-])c1cnn2c(-c3cccc(C(F)(F)F)c3)ccnc12")
"159 to 161 °C"
>>> measvalue("CCOC(=O)Cc1ccccc1NC(=O)c1sc2ccc(OC)cc2c1OC(C)C")
"105 to 106 °C"
>>> measvalue("CC(C)(NC=O)c1ccc(I)cc1")
"121 to 125 °C"
>>> measvalue("CC=C(NC(=O)C1CC1(Cl)Cl)C(=O)O (stereo unspecified)")
"188 to 190 °C"
>>> measvalue("O=C(c1ccccc1)P1(=O)Oc2ccccc2-c2ccccc21 (stereo unspecified)")
"134 to 135 °C"

With those in mind, consider the next molecule.
Exercise: Given the entry CSc1ccc(C(C#N)=NO)cc1 , report its measured melting point.
Key: 132 to 133 °C

---

measurementType: melting point

Worked set:
>>> measvalue("CCOC(=O)c1c(-c2ccccc2Cl)c2cc(CC)ccc2n(C)c1=O")
"125 to 126 °C"
>>> measvalue("O=C(c1n[nH]c2c(=O)[nH]c3cc(Cl)ccc3c(=O)c12)N1CCOCC1")
"347 °C"
>>> measvalue("CNC(=O)n1nc(Oc2ncc(C(F)(F)F)cc2Cl)cc1C")
"85 to 86 °C"
>>> measvalue("COc1ccc(Cn2nc(-n3cnn(Cc4ccc(F)cc4)c3=O)cc2C(=O)O)cc1")
"205 to 207 °C"
>>> measvalue("CC(=O)Nc1cccc(NC(=O)c2cccc(S(=O)(=O)N3CCCCCC3)c2)c1")
"117 to 120 °C"
>>> measvalue("O[C@@H](CNCCOc1ccc2cc(-c3ccon3)oc2c1)COc1ccccc1")
"107 to 110 °C"

With those in mind, consider the next compound.
Exercise: Given the entry CC(C)C1(c2ccccc2O)C(=O)N(C)c2ccccc21 (stereo not given) , report its measured melting point.
Key: 172 to 174 °C

---

Below is a list of entries, each paired with its recorded melting point value.

Worked set:
>>> measvalue("Cc1cccc(OC(=O)C(=O)c2c[nH]c3ccccc23)c1")
"194 to 197 °C"
>>> measvalue("Cc1cc(Cl)c(C(=O)OC(C)c2nc3c(c(=O)n(C)c(=O)n3C)n2C)c(C)n1 (stereo not given)")
"168 to 170 °C"
>>> measvalue("COc1cc(C)nc(NC(=O)NS(=O)(=O)C2=CCCCC2)n1")
"163 to 166 °C"
>>> measvalue("CCCCNS(=O)(=O)c1cccc(NC(=O)NS(=O)(=O)c2ccc(C)cc2)c1")
"153 °C"
>>> measvalue("c1ccc(Nc2nc(NC3CCC3)c3[nH]cnc3n2)cc1")
"312 to 314 °C"

Exercise: Given the entry CS(=O)(=O)Nn1c(=O)[nH]c2cc(C(F)(F)F)c(CCCO)cc2c1=O , report its measured melting point.
Key: 243 to 247 °C

Exercise: Given the entry N#Cc1cnc2ccsc2c1NCc1ccc(Cl)cc1Cl , report its measured melting point.
Key: 215 to 216 °C

Exercise: Given the entry CC(C)(C)C(O)(COc1ccc(F)cc1)C(Cc1ccc(Cl)cc1)n1cncn1 (stereo not given) , report its measured melting point.
Key: 104 to 105 °C

Exercise: Given the entry c1ccc(CN2CCC(=C3c4ccsc4CCn4ccnc43)CC2)cc1 , report its measured melting point.
Key: 178 °C

Exercise: Given the entry O=C(O)c1cn(-c2ccnc3ccccc23)c2ccc(F)cc12 , report its measured melting point.
Key: 148 °C

---

measurementType: melting point

>>> measvalue("NCC1CCCN(c2ncc3ncnc(Nc4ccc(F)c(Cl)c4)c3n2)C1 (stereo not given)")
"132 to 137 °C"
>>> measvalue("O=Cc1cc2cc3c(cc2nc1Cl)OCCO3")
"222 to 224 °C"
>>> measvalue("CC[C@H](NS(=O)(=O)c1ccc(OC)cc1)C(=O)OC(C)(C)C")
"82 °C"

Exercise: Given the entry Cc1cccc(SCC(=O)C23CC4CC(CC(C4)C2)C3)n1 , report its measured melting point.
Key: 116 °C

Exercise: Given the entry Cc1nc2c(O[C@@H]3c4ccccc4C[C@H]3O)cc(Cl)cn2c1C=O (relative stereo) , report its measured melting point.
Key: 220 to 222 °C

Exercise: Given the entry CC1(C)OC(=O)Nc2ccc(I)cc21 , report its measured melting point.
Key: 196 to 197 °C

---

Below is a list of entries, each paired with its recorded melting point value.
Write down the numeric answer in °C and omit the unit.

>>> measvalue("O=P(O)(O)C(O)(CCc1ccc(Cl)c(Cl)c1)P(=O)(O)O")
187

Exercise: Given the entry CCOc1ccc2c(c1)C(C)(c1cc(C(=O)N3CCN(C)CC3)ccc1Cl)C(=O)N2S(=O)(=O)c1ccc(C(=O)NC(C)(C)C)cc1OC (stereo not given) , report its measured melting point.
Key: 96

---

Below is a list of entries, each paired with its recorded melting point value.

Worked set:
>>> measvalue("Cn1cc(C2=C(c3cn(CCCC#N)c4ccccc34)C(=O)NC2=O)c2ccccc21")
"245 to 247 °C"
>>> measvalue("Cn1nc2c(N)nc3c(c2c1CCNC(=O)N1CCOCC1)CCCC3")
"187 to 188 °C"
>>> measvalue("O=C1OCCN1CCN1CCN(C2Cc3cc(F)ccc3Sc3ccccc32)CC1 (stereo not given)")
"158 to 159 °C"

Exercise: Given the entry CCOc1cc(N)c([N+](=O)[O-])cc1C(=O)O , report its measured melting point.
Key: 230 °C

Exercise: Given the entry CCCOc1ccc(CCCOc2ccc3c(c2)C=C(C(=O)O)CCS3(=O)=O)cc1 , report its measured melting point.
Key: 168 to 170 °C

---

Below is a list of entries, each paired with its recorded melting point value.

>>> measvalue("O=C1NCc2c1cc1ccc3c(c1c2-c1ccncc1)OCO3")
"316 to 319 °C"
>>> measvalue("NCc1nc(-c2ncn3c2[C@@H]2CCN2C(=O)c2c(Cl)cccc2-3)no1")
"212 to 214 °C"
>>> measvalue("C=C(C)COc1ccc(C(=O)C=Cc2ccc(N(C)C)cc2)c(O)c1")
"85 to 87 °C"
>>> measvalue("O=C(NCc1cccc(-c2nc(=O)c3ccccc3s2)n1)c1cccs1")
"208 to 209 °C"
>>> measvalue("CCOC(=O)c1ccc(NC(=O)C(c2ccc(Cl)cc2)c2ccc(Cl)cc2)cc1")
"171 to 172 °C"
>>> measvalue("C[Si](C)(C)c1c(C#N)c(C(F)(F)F)nn1-c1c(Cl)cc(C(F)(F)F)cc1Cl")
"108 to 110 °C"
>>> measvalue("O=C(NCCCCN1CCN(C(c2ccccc2)c2ccccc2)CC1)c1cnc2cccc(O)c2c1O")
"215 to 218 °C"
>>> measvalue("CC(C)(C)c1cc(Br)c(O)c(C=NO)c1")
"167 to 169 °C"
>>> measvalue("Oc1ccc(-c2ncc3ncc(Nc4ccncc4)cc3n2)cc1")
"> 268 °C"

With those in mind, consider the next compound.
Exercise: Given the entry CCOC(=O)c1c(Nc2ccc(Cl)cc2C)n[nH]c1C , report its measured melting point.
Key: 156 to 187 °C

---

measurementType: melting point

Worked set:
>>> measvalue("Cc1scc2c1C(=O)Nc1ccccc1N2C(=O)Cl")
"235 to 236 °C"
>>> measvalue("COc1ccc(CS[C@H]2C[C@@H](C(N)=O)N(CCF)C2)cc1")
"122 to 123 °C"
>>> measvalue("CC(=O)CCN1C[C@H]2Cc3ccccc3[C@H](c3ccccc3)[C@H]2C1 (racemic)")
"121 to 124 °C"

Exercise: Given the entry CCOc1cc2c(c3c1OC(C)(C)C3)C(c1cccc(N3C(=O)NC(C)(C)C3=O)c1)=NC(C)(C)C2 , report its measured melting point.
Key: 237 to 238 °C

Exercise: Given the entry CCN(CC)c1cccc(OCCOS(N)(=O)=O)c1 , report its measured melting point.
Key: 105 to 106 °C

Exercise: Given the entry CC1(C)COc2ccc(C(=O)O)cc21 , report its measured melting point.
Key: 171 to 173 °C

Exercise: Given the entry Cc1noc(NS(=O)(=O)c2cc(Cl)ccc2Cl)c1Br , report its measured melting point.
Key: 148 to 150 °C

Exercise: Given the entry COC(=O)[C@H](O)[C@@H](NC(=O)OC(C)(C)C)c1ccc(C#N)cc1 , report its measured melting point.
Key: 250 °C

Exercise: Given the entry N#Cc1cc([N+](=O)[O-])ccc1Sc1ccccc1 , report its measured melting point.
Key: 82 to 84 °C

Exercise: Given the entry O=C(c1ccc2ncccc2c1)c1ccc2nc(Cl)nc(-c3cccc(Cl)c3)c2c1 , report its measured melting point.
Key: 170 °C

Exercise: Given the entry CNc1cccc(-c2ccc(C(=O)O)c(=O)[nH]2)c1 , report its measured melting point.
Key: 283 to 284 °C

Exercise: Given the entry CCOC(=O)C(=O)c1cn(-c2ccccc2)c2ccccc12 , report its measured melting point.
Key: 109 to 110 °C

Exercise: Given the entry CCOC(=O)C=Cc1ccc(N)c(O)c1 , report its measured melting point.
Key: 134 to 135 °C

Exercise: Given the entry CN(CC(N)=O)S(=O)(=O)Cc1cccc(C(F)(F)F)c1 , report its measured melting point.
Key: 146 to 148 °C

Exercise: Given the entry CN=Cc1ccc2c(Br)c(OC)ccc2c1 , report its measured melting point.
Key: 105 to 107 °C
